# TARGET_DESC: recombinant human TOP2B (Homo sapiens)
# Construct: Using recombinant full-length human TOP2A and TOP2B enzymes; YFP (N, cleaved yes); made in house; host or cells: HEK293F
# Sequence (Q02880 1-1621 isoform Q02880-2): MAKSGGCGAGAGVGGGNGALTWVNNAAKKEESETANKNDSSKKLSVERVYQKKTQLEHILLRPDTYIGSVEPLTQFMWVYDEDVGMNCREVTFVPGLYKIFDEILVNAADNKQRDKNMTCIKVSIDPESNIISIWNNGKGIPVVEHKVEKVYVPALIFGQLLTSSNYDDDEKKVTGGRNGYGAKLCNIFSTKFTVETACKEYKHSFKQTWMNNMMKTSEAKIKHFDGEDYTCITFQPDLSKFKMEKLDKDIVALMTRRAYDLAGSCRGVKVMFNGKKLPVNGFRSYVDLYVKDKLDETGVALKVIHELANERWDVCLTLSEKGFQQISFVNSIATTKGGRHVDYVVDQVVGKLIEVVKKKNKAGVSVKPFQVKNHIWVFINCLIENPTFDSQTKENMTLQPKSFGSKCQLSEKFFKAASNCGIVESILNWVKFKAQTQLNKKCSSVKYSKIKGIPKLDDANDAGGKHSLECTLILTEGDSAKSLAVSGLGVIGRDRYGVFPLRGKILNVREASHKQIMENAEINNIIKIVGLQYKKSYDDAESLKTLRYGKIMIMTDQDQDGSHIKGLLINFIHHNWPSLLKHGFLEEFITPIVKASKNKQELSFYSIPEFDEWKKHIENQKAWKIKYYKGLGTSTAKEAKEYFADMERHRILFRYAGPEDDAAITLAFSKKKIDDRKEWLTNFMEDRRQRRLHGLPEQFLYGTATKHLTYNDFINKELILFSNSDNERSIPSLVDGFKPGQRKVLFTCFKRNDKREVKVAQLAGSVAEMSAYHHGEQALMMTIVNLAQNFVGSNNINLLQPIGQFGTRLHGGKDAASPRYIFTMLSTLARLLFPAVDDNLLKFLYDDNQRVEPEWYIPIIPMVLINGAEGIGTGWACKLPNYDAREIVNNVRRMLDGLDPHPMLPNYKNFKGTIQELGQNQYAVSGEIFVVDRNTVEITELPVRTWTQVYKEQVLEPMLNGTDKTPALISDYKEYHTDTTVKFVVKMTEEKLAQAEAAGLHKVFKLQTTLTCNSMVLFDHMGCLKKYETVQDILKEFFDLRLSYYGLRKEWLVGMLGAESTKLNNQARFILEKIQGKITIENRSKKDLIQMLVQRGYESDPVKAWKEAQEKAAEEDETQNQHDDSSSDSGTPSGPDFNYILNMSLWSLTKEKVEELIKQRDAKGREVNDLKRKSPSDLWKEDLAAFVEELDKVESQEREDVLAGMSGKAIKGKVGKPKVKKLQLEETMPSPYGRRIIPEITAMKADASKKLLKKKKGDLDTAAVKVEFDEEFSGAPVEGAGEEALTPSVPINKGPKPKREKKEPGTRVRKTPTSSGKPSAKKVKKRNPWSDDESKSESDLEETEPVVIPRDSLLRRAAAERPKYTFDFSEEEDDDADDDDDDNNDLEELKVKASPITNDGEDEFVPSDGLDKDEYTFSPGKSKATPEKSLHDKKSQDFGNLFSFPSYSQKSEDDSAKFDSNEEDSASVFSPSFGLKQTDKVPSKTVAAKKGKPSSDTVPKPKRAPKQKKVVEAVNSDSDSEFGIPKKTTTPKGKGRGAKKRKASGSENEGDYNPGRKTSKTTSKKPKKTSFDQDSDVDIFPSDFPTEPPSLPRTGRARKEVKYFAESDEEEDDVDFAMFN
# TEST_NAME: In vitro ATPase activity of TOP2B (coupled assay)
# Assay type: biochemical
# RUN_PARAMETERS: n=3
READOUT_KIND: pIC50
Reminder that pIC50 means the negative base-10 logarithm of the concentration expressed in mol/L.

Below, each entry is followed by its recorded pIC50 result.
| COMPOUND_SMILES | READOUT_KIND | REPORTED_MEASUREMENT |
| --- | --- | --- |
| CCCc1cc(=O)oc2c(C(=O)N3CCCc4ccccc43)c(OC)cc(OC)c12 | pIC50 | 6.06 |
| CCCc1cc(=O)oc2c(C(=O)N3CCCc4ccccc43)c(OC)ccc12 | pIC50 | 6.11 |
| C[C@@H](CN1CC(=O)NC(=O)C1)N1CC(=O)NC(=O)C1 | pIC50 | 5.59 |
| CCc1cc(=O)oc2c(C(=O)N3CCCc4ccccc43)c(OCCO)ccc12 | pIC50 | 5.84 |
| CCCc1cc(=O)oc2c(C(=O)N3CCCc4ccccc43)c(OCCN3CCN(C)CC3)ccc12 | pIC50 | 6.46 |

Input: Any idea what pIC50 was measured for CCCOc1ccc2c(CCC)cc(=O)oc2c1C(=O)N1CCCc2ccccc21 ?
Output: 6.07

Input: Any idea what pIC50 was measured for CCCc1cc(=O)oc2c(C(=O)N3CCCc4ccccc43)c(O)ccc12 ?
Output: 6.18

* * *

# Tested on: neonatal rat ventricular cardiomyocytes (NVCM)
# TEST_NAME: Protection against DAU-induced cytotoxicity (LDH release) in NVCM
# Format: cell-based
# Design: key: % of total LDH activity
# RUN_PARAMETERS: compound 30 µM + DAU 1.2 µM
Dear colleague, classification is by Suppl.Fig.3 DAU-induced cytotoxicity (LDH release) in NVCM, mean of independent replicates, with ranges listed here: low (below 30), mid (30 to below 40), high (40 or more)

Example entries and their recorded answers appear below.
| COMPOUND_SMILES | QUALITATIVE_LABEL |
| --- | --- |
| CCc1cc(=O)oc2c(C(=O)N3CCCc4ccccc43)c(O)ccc12 | mid |
| CCCc1cc(=O)oc2c(C(=O)N3CCCc4ccccc43)c(OCCO)ccc12 | low |
| CCCOc1ccc2c(CCC)cc(=O)oc2c1C(=O)N1CCCc2ccccc21 | high |
| CCCCc1cc(=O)oc2c(C(=O)N3CCCc4ccccc43)c(OCCO)ccc12 | mid |
| Cc1cc(=O)oc2c(C(=O)N3CCCc4ccccc43)c(OCCO)ccc12 | high |

Input: Assign a bin to CCc1cc(=O)oc2c(C(=O)N3CCCc4ccccc43)c(OCCO)ccc12
Output: mid

Input: Assign a bin to CCCOc1ccc2c(CC)cc(=O)oc2c1C(=O)N1CCCc2ccccc21
Output: low

Input: Assign a bin to CCCc1cc(=O)oc2c(C(=O)N3CCCc4ccccc43)c(O)ccc12
Output: low

* * *

# Test system: neonatal rat ventricular cardiomyocytes (NVCM)
# TEST_NAME: Protection against DAU-induced cytotoxicity (LDH release) in NVCM
# Format: cell-based
# Set-up: key: % of total LDH activity
# RUN_PARAMETERS: compound 3 µM + DAU 1.2 µM
READOUT_KIND: Suppl.Fig.3 DAU-induced cytotoxicity (LDH release) in NVCM, mean of independent replicates
Reply briefly: the number, and no unit.

| COMPOUND_SMILES | REPORTED_MEASUREMENT |
| --- | --- |
| CCCc1cc(=O)oc2c(C(=O)N3CCCc4ccccc43)c(OC)ccc12 | 26.6827 |
| CCCc1cc(=O)oc2c(C(=O)N3CCCc4ccccc43)c(OC)cc(OC)c12 | 24.9748 |
| CCc1cc(=O)oc2c(C(=O)N3CCCc4ccccc43)c(OC)ccc12 | 35.1015 |

Input: Any idea what Suppl.Fig.3 DAU-induced cytotoxicity (LDH release) in NVCM, mean of independent replicates was measured for COc1ccc2c(C)cc(=O)oc2c1C(=O)N1CCCc2ccccc21 ?
Output: 37.7536
